Consider the following variants; for each one, report its protein stability index.
B1: ADAMTSL2 (parent)
chain: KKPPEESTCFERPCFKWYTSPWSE

# Variants of: B1
# Test protocol: protein stability index of a GFP-peptide fusion (GPS, HEK-293T) (PSI 1-6); higher = more stable;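 further: lentivirally expressed fusions sorted by FACS into six bins by GFP to DsRed ratio, PSI derived from sequencing read proportions per bin multiplied by bin number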
# Condition: c terminus: a fixed tail appended
Write the number on its own, no unit after it.

Requested read-out: protein stability index. Entry: KKPPEESTCFERPAFKWYTSPWSE [C14A]
2.94

Requested read-out: protein stability index. Entry: KKPPEESTCFERPCWKWYTSPWSE [F15W]
2.25

Requested read-out: protein stability index. Entry: KTPPEESTCFERPCFKWYTSPWSE [K2T]
2.66

Requested read-out: protein stability index. Entry: KKPPEESTCQERPCFKWYTSPWSE [F10Q]
2.54

Requested read-out: protein stability index. Entry: KKPPEESTCFERPCFKWYTSPWPE [S23P]
2.6

Requested read-out: protein stability index. Entry: KKPPEESTCFIRPCFKWYTSPWSE [E11I]
1.9

Requested read-out: protein stability index. Entry: KKPPEESTCFERPCTKWYTSPWSE [F15T]
2.89

Requested read-out: protein stability index. Entry: KHPPEESTCFERPCFKWYTSPWSE [K2H]
1.96

Requested read-out: protein stability index. Entry: KKPPEESTCFERPCFKWYTSPWSC [E24C]
2.22

Requested read-out: protein stability index. Entry: KKPPEESTCFERPNFKWYTSPWSE [C14N]
2.98

Requested read-out: protein stability index. Entry: KKPPEEDTCFERPCFKWYTSPWSE [S7D]
2.4

Requested read-out: protein stability index. Entry: KAPPEESTCFERPCFKWYTSPWSE [K2A]
3.16

Requested read-out: protein stability index. Entry: KKGPEESTCFERPCFKWYTSPWSE [P3G]
2.34

Requested read-out: protein stability index. Entry: KKPPEENTCFERPCFKWYTSPWSE [S7N]
2.24

Requested read-out: protein stability index. Entry: KKPPEESTCWERPCFKWYTSPWSE [F10W]
2.09

Requested read-out: protein stability index. Entry: KKPPEESTCFERPCFHWYTSPWSE [K16H]
4.02

Requested read-out: protein stability index. Entry: KKAPEESTCFERPCFKWYTSPWSE [P3A]
2.83

Requested read-out: protein stability index. Entry: KKPPEESTCFERPCFKWYTSPWSL [E24L]
1.72

Requested read-out: protein stability index. Entry: KKPPEESTCFERPCFKIYTSPWSE [W17I]
2.46

Requested read-out: protein stability index. Entry: KKPPEESTCFERPCFKQYTSPWSE [W17Q]
2.85

Requested read-out: protein stability index. Entry: KDPPEESTCFERPCFKWYTSPWSE [K2D]
3.01

Requested read-out: protein stability index. Entry: KKPPEESTCAERPCFKWYTSPWSE [F10A]
2.51

Requested read-out: protein stability index. Entry: KKPPEESTCFERPCFSWYTSPWSE [K16S]
2.49

Requested read-out: protein stability index. Entry: KKPPEESTCFERPCFKWYTSPWAE [S23A]
1.74

Requested read-out: protein stability index. Entry: KKPPEESTCFEMPCFKWYTSPWSE [R12M]
2.16

Requested read-out: protein stability index. Entry: KKPPENSTCFERPCFKWYTSPWSE [E6N]
2.08

Requested read-out: protein stability index. Entry: KKPPEESSCFERPCFKWYTSPWSE [T8S]
2.77

Requested read-out: protein stability index. Entry: PKPPEESTCFERPCFKWYTSPWSE [K1P]
2.24

Requested read-out: protein stability index. Entry: KKPPEESTCFERPCFKWYTSPWQE [S23Q]
2.47

Requested read-out: protein stability index. Entry: KKPPEESTCFERPFFKWYTSPWSE [C14F]
2.39

Requested read-out: protein stability index. Entry: KKPDEESTCFERPCFKWYTSPWSE [P4D]
2.69

Requested read-out: protein stability index. Entry: KKCPEESTCFERPCFKWYTSPWSE [P3C]
2.08

Requested read-out: protein stability index. Entry: KKPQEESTCFERPCFKWYTSPWSE [P4Q]
2.72

Requested read-out: protein stability index. Entry: KKPPEESTCCERPCFKWYTSPWSE [F10C]
2.14

Requested read-out: protein stability index. Entry: KKPPEESTCFERPCFKWYTSQWSE [P21Q]
2.2

Requested read-out: protein stability index. Entry: KKPPEESTCFECPCFKWYTSPWSE [R12C]
1.69

Requested read-out: protein stability index. Entry: KFPPEESTCFERPCFKWYTSPWSE [K2F]
2.13

Requested read-out: protein stability index. Entry: KKPPEESTTFERPCFKWYTSPWSE [C9T]
2.84

Requested read-out: protein stability index. Entry: KGPPEESTCFERPCFKWYTSPWSE [K2G]
2.73

Requested read-out: protein stability index. Entry: KKPPEESTCFERPCFKWYSSPWSE [T19S]
3.24

Requested read-out: protein stability index. Entry: KKPPEESTCFERPCFKWYWSPWSE [T19W]
2.05

Requested read-out: protein stability index. Entry: RKPPEESTCFERPCFKWYTSPWSE [K1R]
2.88

Requested read-out: protein stability index. Entry: KKPPEECTCFERPCFKWYTSPWSE [S7C]
2.66

Requested read-out: protein stability index. Entry: KKPPEESTCFERPCFKWYTKPWSE [S20K]
2.61

Requested read-out: protein stability index. Entry: KKPPEESYCFERPCFKWYTSPWSE [T8Y]
1.68

Requested read-out: protein stability index. Entry: KKPPEESTCFERPCFKWETSPWSE [Y18E]
3.15
